src = patent US20250340532A1

# SYSTEM_NAME: UniProtKB P51679
# ASSAY_EXPLANATION: Calcium flow detected by FLIPR
# MEASUREMENT_PARAMETERS: CCR4/HEK293 cells, agonist CCL17, Fluo-4 calcium signal
# IC50 per entry

Known IC50 results, listed for orientation:
1. Cc1nc(N2CC(C3CN(C4CC(c5nn[nH]n5)C4)CCO3)C2)nc(NC(C)c2ccc(Cl)cc2Cl)c1Cl (single isomer, unassigned) [Compound 79 isomer 1]: 100 to 500 nM
2. Cc1nc(N2CC(C3CN(C4CC(C)(C(=O)O)C4)CCO3)C2)nc(NC(C)c2ccc(Cl)cc2Cl)c1Cl (single isomer, unassigned) [Compound 9 isomer 3]: < 100 nM

Lookup: Using known records, supply IC50 for Cc1nc(N2CC(N3CCCC(N4CC(C)(C(=O)O)C4)C3)C2)nc(NC(C)c2ccc(Cl)cc2Cl)c1Cl (single isomer, unassigned) [Compound 16 isomer 1]
Found: 100 to 500 nM

* * *

# SYSTEM_NAME: CCR4 (Homo sapiens)
# Sequence (P51679 1-360): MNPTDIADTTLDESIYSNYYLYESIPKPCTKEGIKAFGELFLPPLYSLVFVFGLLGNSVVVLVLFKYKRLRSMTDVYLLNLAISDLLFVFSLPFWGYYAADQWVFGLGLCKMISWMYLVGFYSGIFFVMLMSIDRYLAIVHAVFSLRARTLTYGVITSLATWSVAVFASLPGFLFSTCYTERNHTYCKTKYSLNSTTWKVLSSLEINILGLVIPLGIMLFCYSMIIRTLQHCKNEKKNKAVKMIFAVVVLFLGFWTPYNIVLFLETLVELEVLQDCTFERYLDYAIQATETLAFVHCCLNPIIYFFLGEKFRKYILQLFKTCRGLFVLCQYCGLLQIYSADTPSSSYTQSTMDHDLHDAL
# ASSAY_EXPLANATION: Calcium flow detected by FLIPR
# MEASUREMENT_PARAMETERS: CCR4/HEK293 cells, agonist CCL17, Fluo-4 calcium signal
# Procedure: CCR4/HEK293 cells were added to a 384-well cell culture plate (Greiner #781946) at a rate of 20 μL/well (20,000 cells/well) and incubated overnight in a 37° C., 5% CO2 incubator (Incubator, Thermo). […] The 384-well culture plate was placed in FLIPR ([…]), 10 μL of 6X agonist CCL17 was added by using an automatic loader, and the fluorescence signal was read immediately. […]
MEASUREMENT_KIND: IC50

1) C[C@@H](Nc1nc(N2CC(C3CN(C4CC(C)(C(=O)O)C4)CCO3)C2)nc(C(F)F)c1Cl)c1ccc(Cl)cc1Cl (single isomer, unassigned) [Compound 77 isomer 2]: < 100 nM
2) C#Cc1ccc(C(C)Nc2nc(N3CC([C@H]4CCCN(CCO)C4)C3)nc(C)c2Cl)c(Cl)c1 (stereo partly drawn) [Compound 38]: 100 to 500 nM

Now consider the entry below.
Lookup: Assign IC50 to the following record: Cc1nc(N2CC=C(C3CN(C4CC(C)(C(=O)O)C4)CCO3)CC2)nc(NC(C)c2ccc(Cl)cc2Cl)c1Cl (single isomer, unassigned) [Compound 107 isomer 1]
Found: < 100 nM

* * *

# SYSTEM_NAME: CCR4 (Homo sapiens, UniProt P51679)
# ASSAY_EXPLANATION: Calcium flow detected by FLIPR
# MEASUREMENT_PARAMETERS: CCR4/HEK293 cells, agonist CCL17, Fluo-4 calcium signal
pIC50: −log10 of the molar value.
This listing pairs molecules with measured pIC50.

Completed entries (count: 3):
1) Cc1nc(N[C@H](C)c2ccc(Cl)cc2Cl)cc(N2CC([C@H]3CCCN([C@H]4C[C@](C)(C(=O)O)C4)C3)C2)n1: > 7.00
2) Cc1nc(N2CC(N3CCCC(N4CC(C)(C(=O)O)C4)C3)C2)nc(NC(C)c2ccc(Cl)cc2Cl)c1Cl (single isomer, unassigned) [Compound 16 isomer 2]: > 7.00
3) C[C@@H](Nc1cc(N2CC([C@H]3CCCN([C@H]4C[C@](C)(C(=O)O)C4)C3)C2)ncn1)c1ccc(Cl)cc1Cl: > 7.00

Lookup: Return reported pIC50. Input molecule: Cc1nc(N2CC(F)(C3CN(CCC(=O)O)CCO3)C2)nc(N[C@H](C)c2ccc(Cl)cc2Cl)c1Cl (some centres unmarked)
Found: > 7.00

Lookup: Note down pIC50 recorded for C#Cc1ccc(C(C)Nc2cc(N3CC([C@H]4CCCN([C@H]5C[C@](C)(C(=O)O)C5)C4)C3)nc3ccnn23)c(Cl)c1 (some centres unmarked)
Found: > 7.00

Lookup: Give reported pIC50 value for Cc1nc(N2CC(C3CCCC(N4CC(C)(C(=O)O)C4)C3)C2)nc(NC(C)c2ccc(Cl)cc2Cl)c1Cl (single isomer, unassigned) [Compound 8 isomer 1]
Found: 6.30 to 7.00

Lookup: Item Cc1nc(N2CC(C3CN(C4CC(C)(C(=O)O)C4)CCN3C)C2)nc(NC(C)c2ccc(Cl)cc2Cl)c1Cl (single isomer, unassigned) [Compound 81 isomer 1] : provide pIC50
Found: 6.30 to 7.00

Lookup: Output measured pIC50 for this item: "C[C@@H](Nc1cc(N2CC([C@H]3CCCN([C@H]4C[C@](C)(C(=O)O)C4)C3)C2)nc2ccnn12)c1ccc(Cl)cc1Cl"
Found: > 7.00

Lookup: // fetch pIC50 given entry "Cc1nc(N[C@H](C)c2ccc(Cl)cc2Cl)nc(N2CC([C@H]3CCCN([C@H]4C[C@](C)(C(=O)O)C4)C3)C2)n1"
Found: > 7.00

Lookup: Supply reported pIC50 belonging to this molecule: C[C@@H](Nc1nc(N2CC(C3CN(C4CC(C)(C(=O)O)C4)CCO3)C2)nc2ccccc12)c1ccc(Cl)cc1Cl (single isomer, unassigned) [Compound 67 isomer 1]
Found: > 7.00

Lookup: Determine from records and report pIC50 for "C[C@@H](Nc1cc(N2CC([C@H]3CCCN([C@H]4C[C@](C)(C(=O)O)C4)C3)C2)n2nccc2n1)c1ccc(Cl)cc1Cl"
Found: > 7.00

Lookup: For the molecule Cc1nc(N2CCC(C3CN(C4CC(C)(C(=O)O)C4)CCO3)CC2)nc(NC(C)c2ccc(Cl)cc2Cl)c1Cl (single isomer, unassigned) [Compound 73 isomer 3] , report pIC50.
Found: > 7.00

Lookup: Give pIC50 for Cc1nc(N2CC(C3CN(C4CC(c5nn[nH]n5)C4)CCO3)C2)nc(NC(C)c2ccc(Cl)cc2Cl)c1Cl (single isomer, unassigned) [Compound 79 isomer 2]
Found: 6.30 to 7.00

Lookup: Return reported pIC50. Input molecule: Cc1nc(N2CC(C3CCCN(C4CC(C)(C(=O)O)C4)C3)C2)nc(NC(C)c2cc(Cl)sc2Cl)c1Cl (single isomer, unassigned) [Compound 10 isomer 1]
Found: 6.30 to 7.00

Lookup: Specify measured pIC50 for CC(Nc1nc(N2CC(C3CN(C4CC(C)(C(=O)O)C4)CCO3)C2)ncc1Br)c1ccc(Cl)cc1Cl (single isomer, unassigned) [Compound 37 isomer 1] .
Found: > 7.00

Lookup: State its pIC50 for this molecule: Cc1nc(N2CC([C@H]3CCCN([C@H]4C[C@](C)(C(=O)O)C4)C3)C2)nc(NC(C)c2cc3c(cc2Cl)CC3)c1Cl (some centres unmarked)
Found: 6.30 to 7.00

Lookup: Tell me pIC50 reported for "C[C@@H](Nc1cc(N2CC([C@H]3CCCN([C@H]4C[C@](C)(C(=O)O)C4)C3)C2)nc(C(F)(F)F)n1)c1ccc(Cl)cc1Cl"
Found: 6.30 to 7.00

Lookup: Supply reported pIC50 belonging to this molecule: "Cc1cc(N2CC([C@H]3CCCN([C@H]4C[C@](C)(C(=O)O)C4)C3)C2)cc(N[C@H](C)c2ccc(Cl)cc2Cl)n1"
Found: > 7.00

Lookup: Indicate its recorded pIC50; the molecule in question is "C#Cc1c(C)nc(N2CC([C@H]3CCCN([C@H]4C[C@](C)(C(=O)O)C4)C3)C2)nc1N[C@H](C)c1ccc(Cl)cc1Cl"
Found: > 7.00

Lookup: Dear colleague, please send me the reported pIC50 for CC(Nc1cc(N2CC(F)(C3CN(C4CC(C)(C(=O)O)C4)CCO3)C2)ccc1Cl)c1ccc(Cl)cc1Cl (single isomer, unassigned) [Compound 86 isomer 1] when you can.
Found: > 7.00

Lookup: Please give the documented pIC50 of Cc1nc(N2CC(F)(C3CN(C4CC(C)(C(=O)O)C4)CCO3)C2)nc(N[C@H](C)c2ccc(Cl)cc2Cl)c1Cl (single isomer, unassigned) [Compound 64 isomer 3]
Found: > 7.00

Lookup: Annotate the molecule CC(Nc1nc(N2CC(F)(C3CN(C4CC(C)(C(=O)O)C4)CCO3)C2)ncc1Cl)c1ccc(Cl)cc1Cl (single isomer, unassigned) [Compound 89 isomer 1] with its measured pIC50.
Found: > 7.00

Lookup: Let me know recorded pIC50 for C[C@@H](Nc1cc(N2CC(C3CN(C4CC(C)(C(=O)O)C4)CCO3)C2)ncn1)c1ccc(Cl)cc1Cl (single isomer, unassigned) [Compound 29 isomer 1] , thanks.
Found: 6.30 to 7.00
